These entries and their values trace back to ChEMBL document CHEMBL1201862.

system: OVCAR-8; test: NCI tumour cell line growth inhibition, 48 h
The source made the active and inactive calls. No stated cut-off is given here; in the data, active = GI50 up to about 1.1 µM and inactive = higher.
readout.name: GI50

>>> assay_value("CC(=O)O[C@H]1C(=O)[C@@]2(C)[C@H]([C@H](OC(=O)c3ccccc3)[C@]3(O)C[C@H](OC(=O)[C@H](O)[C@@H](NC(=O)c4ccccc4)c4ccccc4C)C(C)=C1C3(C)C)[C@]1(OC(C)=O)CO[C@@H]1C[C@@H]2O")
"1.41 µM (inactive)"
>>> assay_value("Cn1nc(N)nc1N=S(C)(C)=N")
"> 100 µM (inactive)"
>>> assay_value("CC(=O)Oc1ccc(OC(Oc2ccccc2)c2ccccc2)cc1 (stereo not given)")
"37.9 µM (inactive)"
>>> assay_value("C1=CC2=CC=CC3c4nc5ccc6ccccc6c5nc4C(=C1)C23 (stereo not given)")
"> 100 µM (inactive)"
>>> assay_value("CCOP(=O)(OCC)/C(=C/c1cccs1)CC(C)=O")
"> 100 µM (inactive)"
>>> assay_value("Cc1ccc(/C=N/Nc2cc(C)c3cccc(C)c3n2)s1")
"10.4 µM (inactive)"
>>> assay_value("Cc1ccc(S(=O)(=O)NC2C(=O)c3ccccc3C(=O)C2n2cnc3ccccc32)cc1 (stereo not given)")
"29.4 µM (inactive)"
>>> assay_value("C=C1C(=O)C23CC1CCC2C12CO[C@@H]4OCC(C)(CC[C@@H]1OC3=O)C42 (stereo not given in full)")
"2.02 µM (inactive)"
>>> assay_value("CCN(CC)CCCNC(=O)c1ccc([N+](=O)[O-])cc1O")
"> 100 µM (inactive)"
>>> assay_value("CS(=O)(=O)Nc1ccc(NCc2c[nH]c3ccc4ncccc4c23)cc1")
"34 µM (inactive)"
>>> assay_value("CSCCC(NC(c1ccccc1)c1ccccc1)[PH](=O)O (stereo not given)")
"> 100 µM (inactive)"
>>> assay_value("C[C@H]1C[C@@H]2[C@H]([C@@H](O)C[C@@]3(C)[C@H]2CC[C@]3(O)C(=O)CO)[C@@]2(C)C=CC(=O)C=C12")
"> 100 µM (inactive)"
>>> assay_value("O=C1CCSSCCC(=O)Nc2ccccc2N1")
"> 100 µM (inactive)"
>>> assay_value("CCNc1ncnc2c1nnn2CC")
"97.5 µM (inactive)"
>>> assay_value("O=C1c2cc3c(cc2CC12Cc1cc4c(cc1C2=O)CCC4)CCCC3 (stereo not given)")
"> 100 µM (inactive)"
>>> assay_value("O=C(N/N=C/c1cc(Cl)cc(Cl)c1O)c1ccccc1O")
"0.344 µM (active)"
>>> assay_value("CC(=O)c1ccc(N2CCN(C3=C(Cl)C(=O)c4c(O)ccc(O)c4C3=O)CC2)cc1")
"3.86 µM (inactive)"
>>> assay_value("O=C(O)C12C3CCC(O3)C1(C(=O)O)C1CCC2O1 (stereo not given)")
"> 100 µM (inactive)"
>>> assay_value("CN(c1n[n+]2c(-c3ccccc3)csc2s1)c1n[n+]2c(-c3ccccc3)csc2s1")
"> 100 µM (inactive)"
>>> assay_value("CC1=Nc2c(ccc3c2C(=O)c2ccccc2C3=O)NC(c2ccncc2)C1 (stereo not given)")
"8.55 µM (inactive)"
